Cited source for all entries: ChEMBL document CHEMBL2040723

# System Under Test: Muscarinic acetylcholine receptor M4 (Homo sapiens, UniProt P08173)
# Sequence (P08173 whole entry): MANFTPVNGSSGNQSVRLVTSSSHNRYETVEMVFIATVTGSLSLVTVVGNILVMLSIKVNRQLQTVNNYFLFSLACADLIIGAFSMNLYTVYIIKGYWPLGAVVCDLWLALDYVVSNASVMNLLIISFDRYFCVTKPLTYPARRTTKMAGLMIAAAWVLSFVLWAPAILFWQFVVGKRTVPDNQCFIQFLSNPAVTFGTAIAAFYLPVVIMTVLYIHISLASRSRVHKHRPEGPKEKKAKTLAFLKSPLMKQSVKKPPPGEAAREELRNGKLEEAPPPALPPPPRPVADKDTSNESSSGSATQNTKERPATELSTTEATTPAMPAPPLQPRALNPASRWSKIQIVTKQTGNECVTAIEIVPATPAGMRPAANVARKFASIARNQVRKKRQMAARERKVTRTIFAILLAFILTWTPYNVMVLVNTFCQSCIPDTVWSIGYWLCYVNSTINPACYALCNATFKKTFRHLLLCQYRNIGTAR
Measurement Kind: pKi
pKi here is simply -log10 of the concentration when that concentration is written in mol/L.

Problem: Returns the measured pKi for the input compound. Input: C[N+](C)(C)C[C@@H]1COC[C@H](c2ccccc2)O1.[I-] (relative stereo)
Solution: 4.91

Problem: Returns the measured pKi for the input compound. Input: CC[C@H]1COC[C@@H](C[N+](C)(C)C)O1.[I-] (relative stereo)
Solution: 4.60

Problem: Returns the measured pKi for the input compound. Input: C[N+](C)(C)C[C@@H]1COC[C@@H](c2ccccc2)O1.[I-] (relative stereo)
Solution: 4.53

Problem: Returns the measured pKi for the input compound. Input: C[N+](C)(C)C[C@@H]1COC[C@@H](C(c2ccccc2)c2ccccc2)O1 (relative stereo)
Solution: 4.77
